Could you please report measured abundance fitness for the items listed next?
B1: Mineralocorticoid receptor, residues 600 to 675; numbered along this chain, P08235 (parent)
chain: SKICLVCGDEASGCHYGVVTCGSCKVFFKRAVEGQHNYLCAGRNDCIIDKIRRKNCPACRLQKCLQAGMNLGARKS

Variants of: B1
Assay Explanation: abundance fitness (aPCA) (normalised: wild type 0, dead -1); higher = more abundant; growth selection in yeast, the domain comes from the species named
Run Parameters: Homo sapiens
// response body must contain only the number

Provide abundance fitness value for the following variant: N55L
-0.021

Provide abundance fitness value for the following variant: R53Q
-0.058

Provide abundance fitness value for the following variant: R43T
-0.001

Provide abundance fitness value for the following variant: H36A
0.025

Provide abundance fitness value for the following variant: F28G
-0.647

Provide abundance fitness value for the following variant: F28K
-0.856

Provide abundance fitness value for the following variant: R74Q
-0.079

Provide abundance fitness value for the following variant: F28W
0.037

Provide abundance fitness value for the following variant: G42D
0.051

Provide abundance fitness value for the following variant: K25T
-0.105

Provide abundance fitness value for the following variant: C59K
-0.972

Provide abundance fitness value for the following variant: F27E
-0.961

Provide abundance fitness value for the following variant: I48R
-0.147

Provide abundance fitness value for the following variant: R53T
-0.042

Provide abundance fitness value for the following variant: S23Y
-0.038

Provide abundance fitness value for the following variant: K63I
-0.101

Provide abundance fitness value for the following variant: Q35F
-0.129

Provide abundance fitness value for the following variant: F27T
-0.638

Provide abundance fitness value for the following variant: R43K
0.029

Provide abundance fitness value for the following variant: I51W
-0.164

Provide abundance fitness value for the following variant: A58F
-0.082

Provide abundance fitness value for the following variant: E10K
0.016

Provide abundance fitness value for the following variant: I51N
-0.108

Provide abundance fitness value for the following variant: R30W
-0.29

Provide abundance fitness value for the following variant: E33T
-0.051

Provide abundance fitness value for the following variant: G22Y
-0.222

Provide abundance fitness value for the following variant: M69Y
-0.493

Provide abundance fitness value for the following variant: R74A
0.027

Provide abundance fitness value for the following variant: A41R
-0.021

Provide abundance fitness value for the following variant: V32K
-0.004

Provide abundance fitness value for the following variant: K75Y
-0.051

Provide abundance fitness value for the following variant: V19D
-0.008

Provide abundance fitness value for the following variant: E33Q
-0.039

Provide abundance fitness value for the following variant: C4I
-0.808

Provide abundance fitness value for the following variant: G68R
-0.172

Provide abundance fitness value for the following variant: C59I
-0.955

Provide abundance fitness value for the following variant: F27H
-0.427

Provide abundance fitness value for the following variant: C21I
-0.803

Provide abundance fitness value for the following variant: G17V
-0.228
